Molecular target: Serine/threonine-protein kinase Chk1 (Homo sapiens)
Sequence (O14757 whole entry): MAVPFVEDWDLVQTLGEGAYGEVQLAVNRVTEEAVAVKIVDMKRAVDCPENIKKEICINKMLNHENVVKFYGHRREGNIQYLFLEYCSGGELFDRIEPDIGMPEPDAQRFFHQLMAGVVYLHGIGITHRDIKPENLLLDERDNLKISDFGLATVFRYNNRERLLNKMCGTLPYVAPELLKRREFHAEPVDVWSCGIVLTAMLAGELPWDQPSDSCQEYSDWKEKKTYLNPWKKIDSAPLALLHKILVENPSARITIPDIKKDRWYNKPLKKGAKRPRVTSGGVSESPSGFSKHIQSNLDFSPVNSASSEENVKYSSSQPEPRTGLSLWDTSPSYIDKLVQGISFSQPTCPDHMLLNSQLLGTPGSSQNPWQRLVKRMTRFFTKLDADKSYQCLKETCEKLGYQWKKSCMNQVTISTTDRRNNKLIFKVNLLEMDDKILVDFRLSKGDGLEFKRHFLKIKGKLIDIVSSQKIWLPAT
pIC50: −log10 of the molar value.
// Not fulfilled strictly below 8 in pIC50; Fulfilled otherwise

>>> df
                                   molecule    class_label
0  O=c1[nH]c2ccccc2c(N[C@H]2CN3CCC2CC3)c1-c1nc2ccccc2[nH]1  Not fulfilled
1  O=c1[nH]c2ccc(Cl)cc2c(NC2CCNCC2)c1-c1nc2ccccc2[nH]1      Fulfilled
2  O=c1[nH]c2ccc(Cl)c(Cl)c2c(N[C@@H]2CN3CCC2CC3)c1-c1nc2ccccc2[nH]1  Not fulfilled
3  Cc1cccc2c(N[C@@H]3CN4CCC3CC4)c(-c3nc4ccccc4[nH]3)c(O)nc12  Not fulfilled
4  Oc1nc2ccc(Cl)cc2c(N[C@H]2CCNC2)c1-c1nc2ccccc2[nH]1      Fulfilled
5  Cc1ccc2nc(O)c(-c3nc4ccccc4[nH]3)c(NC3CCNCC3)c2c1      Fulfilled
6  Cc1ccc2nc(O)c(-c3nc4ccccc4[nH]3)c(N[C@@H]3CN4CCC3CC4)c2c1      Fulfilled

----------
Tested on: MDA-MB-435
Test: Cytotoxicity against human MDA-MB-435 cells
Type: functional, cell-based
pEC50: −log10 of the molar value.
Measure Name: pEC50

>>> df
                                   molecule   val
0  O=c1[nH]c2ccc(Cl)cc2c(N[C@@H]2CN3CCC2CC3)c1-c1nc2ccccc2[nH]1  7.10
